All figures here come from patent US20230021562A1.

system: MOLP8 cell line; experiment: MOLP8 CellEvent Caspase-3/7 Green live-cell IncuCyte apoptosis assay; assay type: cell-based, human; conditions: Homo sapiens, MOLP-8, 12 h, read-out: MOLP8 Caspase 3/7 AC50 at 12 h (μM), MOLP8 cells, 12 h; averaged values
readout-label: AC50

Example entries and their recorded answers appear below.
> print(dat)
                                 smiles.str  readout.label  recorded.measurement
1  Cc1c2c(nn1C)CSCc1cc(n(CCN3CCOCC3)n1)CSc1cc(c3ccccc3c1)OCCCc1c(C(=O)O)n(C)c3c-2c(Cl)ccc13           AC50              0.097 µM
2  CCn1nc2cc1CSCc1nn(C)c(C)c1-c1c(Cl)ccc3c(c(C(=O)O)n(C)c13)CCCOc1cc(cc3ccccc13)SC2           AC50               0.13 µM
3  Cc1c2c(nn1C)CSCc1cc(n[nH]1)CSc1cc(c3ccccc3c1)OCCCc1c(C(=O)O)n(C)c3c-2c(Cl)ccc13           AC50               0.55 µM

Q) Give the reported AC50 for this compound. COCCn1nc2cc1CSc1cc(c3ccccc3c1)OCCCc1c(C(=O)O)n(C)c3c(c(Cl)ccc13)-c1c(nn(C)c1C)CSC2
A) 0.22 µM

Q) Give the reported AC50 for this compound. Cc1c2c(nn1C)CSCc1cc(nn1CCN(C)C)CSc1cc(c3ccccc3c1)OCCCc1c(C(=O)O)n(C)c3c-2c(Cl)ccc13
A) 0.25 µM

Q) Give the reported AC50 for this compound. Cc1c2c(nn1C)CSCc1cc(nn1CC1CCOCC1)CSc1cc(c3ccccc3c1)OCCCc1c(C(=O)O)n(C)c3c-2c(Cl)ccc13
A) 0.43 µM
